Origin of the recorded values: the supplement of paper PMC12350171

What growth AUC normalised to DMSO control was measured for each of the following?
test system: Yersinia pseudotuberculosis; experiment: growth AUC normalised to DMSO control (fraction of control); higher = less growth inhibition, active = hit call of the paper; conditions: 20 µM

Q) For the compound CCC[C@H](N[C@@H](C)C(=O)N1[C@H](C(=O)O)C[C@@H]2CCCC[C@@H]21)C(=O)OCC [Perindopril] , what growth AUC normalised to DMSO control is on record?
A) 1.04 (inactive)

Q) For the compound Nc1nc(=O)c2nc(CNc3ccc(C(=O)N[C@@H](CCC(=O)O)C(=O)O)cc3)cnc2[nH]1 [Folic acid] , what growth AUC normalised to DMSO control is on record?
A) 0.994 (inactive)

Q) For the compound CCC(Cc1c(I)cc(I)c(N)c1I)C(=O)O (centres undefined) [Iopanoic acid] , what growth AUC normalised to DMSO control is on record?
A) 0.989 (inactive)

Q) For the compound CC(=O)[C@H]1CC[C@H]2[C@@H]3C=CC4=CC(=O)CC[C@@]4(C)[C@@H]3CC[C@]12C [Dydrogesterone] , what growth AUC normalised to DMSO control is on record?
A) 1.01 (inactive)
